system.tested: hMC-4R (Homo sapiens, UniProt P32245)
Construct: expressed in transfected cells; host or cells: HEK293 cells (membrane preparations)
Sequence (P32245 whole entry): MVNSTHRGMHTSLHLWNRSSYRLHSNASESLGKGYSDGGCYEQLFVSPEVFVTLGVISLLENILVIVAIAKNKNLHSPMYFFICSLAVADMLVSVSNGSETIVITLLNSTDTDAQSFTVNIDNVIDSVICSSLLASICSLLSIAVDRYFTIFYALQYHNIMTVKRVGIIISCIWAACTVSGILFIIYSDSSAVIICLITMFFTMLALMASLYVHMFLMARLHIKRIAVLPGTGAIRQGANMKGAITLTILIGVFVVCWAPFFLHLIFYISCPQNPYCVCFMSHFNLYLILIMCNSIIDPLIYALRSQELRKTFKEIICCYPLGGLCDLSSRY
measurement.description: functional assay, homogeneous membrane based cAMP fluorescence polarization assay
Assay type: biochemical
particulars: read-out: % activation functional assay
measured.quantity: Emax (%)
Kindly provide the numeric value in % only, without the unit symbol.

| molecule | measured.quantity | result.unit | quantitative.readout |
| --- | --- | --- | --- |
| CC(C)CCN(CCC(C)C)C(=O)c1ccc2nc(C3CCC(=O)N(C)C3)n(CCCN3CCCC3)c2c1 (stereo not shown) | Emax | % | -2 |
| CCCCN(CCCC)C(=O)c1ccc2nc(CC3CCN(C(=O)OC(C)(C)C)CC3)n(CCCN3CCCC3)c2c1 | Emax | % | -33 |
| CC(C)CCN(CCC(C)C)C(=O)c1ccc2nc(N3CCN(C)CC3)n(CCCN3CCCC3)c2c1 | Emax | % | -4 |
| CC(C)CCN(CCC(C)C)C(=O)c1ccc2nc(C3CN(C(=O)OC(C)(C)C)C3)n(CCCN3CCCC3)c2c1 | Emax | % | -9 |
| CCCCN(CCCC)C(=O)c1ccc2nc(CC3CCN(C4COC4)CC3)n(CCCN3CCCC3)c2c1 | Emax | % | 0 |
| CC(C)CCN(CCC(C)C)C(=O)c1ccc2nc(-c3ccc(=O)[nH]c3)n(CCCN3CCCCC3)c2c1 | Emax | % | -12 |

# input Need Emax, item CC(C)CCN(CCC(C)C)C(=O)c1ccc2nc(CC3CCN(C)CC3)n(CCCN3CCCC3)c2c1
# output -10

# input // repeat for CC(C)CCN(CCC(C)C)C(=O)c1ccc2nc(-c3ccc(=O)[nH]c3)n(CCCN3CCCC3)c2c1 and report
# output -14

# input Can you handle CC(C)CCN(CCC(C)C)C(=O)c1ccc2nc(C3CCNCC3)n(CCCN3CCCC3C)c2c1 (stereo not shown) next?
# output -12

# input Note, next up: CC(C)CCN(CCC(C)C)C(=O)c1ccc2nc(C3CNC3)n(CCCN3CCCC3)c2c1
# output -32

# input Item: COc1cc(C2(c3nc4ccc(C(=O)N(CCC(C)C)CCC(C)C)cc4n3CCCN3CCCC3)CC2)ccn1
# output -6

###

system.tested: hMC-4R (Homo sapiens)
Construct: expressed in transfected cells; host or cells: HEK293 cells (membrane preparations)
measurement.description: membrane binding assay, competition with fluorescence labeled NDP-alpha-MSH (fluorescence polarization)
Measured IC50, listed per entry for reference.

// below: answered compounds
| compound | IC50 |
| --- | --- |
| COc1cc(Cc2nc3ccc(C(=O)N(CCC(C)C)CCC(C)C)cc3n2CCCN2CCCC2)ccn1 | < 100 nM |
| CC(C)CCN(CCC(C)C)C(=O)c1ccc2nc(C3CCN(C(=O)OC(C)(C)C)CC3)n(CCCN3CCCC3)c2c1 | < 100 nM |
| CC(C)CCN(CCC(C)C)C(=O)c1ccc2nc(CC3CCN(CCO)CC3)n(CCCN3CCCC3)c2c1 | < 100 nM |
| CC(C)CCN(CCC(C)C)C(=O)c1ccc2nc(-c3ccc(=O)[nH]c3)n(CC(O)CN3CCCC3)c2c1 (stereo not shown) | < 1000 nM |

# input Fill in: IC50 of CC(C)CCN(CCC(C)C)C(=O)c1ccc2nc(CC3CCN(C4COC4)CC3)n(CCCN3CCCC3)c2c1 is ___
# output < 100 nM

# input What do you have for COc1cc(C2(c3nc4ccc(C(=O)N(CCC(C)C)CCC(C)C)cc4n3CCCN3CCCC3)CC2)ccn1 ?
# output < 1000 nM

# input Next up: CC(C)CCN(CCC(C)C)C(=O)c1ccc2nc(-c3ccc(=O)[nH]c3)n(CCCN3CCCC3C)c2c1 (stereo not shown)
# output < 100 nM

###

system.tested: hMC-4R (Homo sapiens, UniProt P32245)
Construct: expressed in transfected cells; host or cells: HEK293 cells (membrane preparations)
measurement.description: functional assay, homogeneous membrane based cAMP fluorescence polarization assay
Type: biochemical
particulars: read-out: % activation functional assay
measured.quantity: Emax (%)
# output: bare number, implied unit %

Example entries and their recorded answers appear below.
| compound | system.tested | quantitative.readout |
| --- | --- | --- |
| CC(C)CCN(CCC(C)C)C(=O)c1ccc2nc(-c3cnc(O)nc3)n(CCCN3CCCC3)c2c1 | hMC-4R (Homo sapiens, UniProt P32245) | -12 |
| CC(C)CCN(CCC(C)C)C(=O)c1ccc2nc(C3CCN(C(=O)OC(C)(C)C)CC3)n(CCCN3CCCC3C)c2c1 (stereo not shown) | hMC-4R (Homo sapiens, UniProt P32245) | -40 |
| CC(C)CCN(CCC(C)C)C(=O)c1ccc2nc(CC3CCN(C4COC4)CC3)n(CCCN3CCCC3)c2c1 | hMC-4R (Homo sapiens, UniProt P32245) | -11 |

# input Given the entry CC(C)CCN(CCC(C)C)C(=O)c1ccc2nc(-c3ccc(=O)[nH]c3)n(CC(O)CN3CCCC3)c2c1 (stereo not shown) , report its measured Emax.
# output -15

# input Further, for COc1cc(Cc2nc3ccc(C(=O)N(CCC(C)C)CCC(C)C)cc3n2CCCN2CCCC2)ccn1 ?
# output 0

# input Now try CC(C)CCN(CCC(C)C)C(=O)c1ccc2nc(CC3CCN(C(=O)OC(C)(C)C)CC3)n(CCCN3CCCC3)c2c1 .
# output -7

# input For CC(C)CCN(CCC(C)C)C(=O)c1ccc2nc(CN3CCN(C(C)C)CC3)n(CCCN3CCCC3)c2c1 then?
# output 0

###

system.tested: hMC-4R (Homo sapiens)
Construct: expressed in transfected cells; host or cells: HEK293 cells (membrane preparations)
measurement.description: membrane binding assay, competition with fluorescence labeled NDP-alpha-MSH (fluorescence polarization)
pIC50: −log10 of the molar value.
measured.quantity: pIC50

# input Reported pIC50, compound CC(C)CCN(CCC(C)C)C(=O)c1ccc2nc(C3CCN(C)CC3)n(CCCN3CCCC3)c2c1 [Example 24] : ____
# output > 7.00

# input Try this compound too: CC(C)CCN(CCC(C)C)C(=O)c1ccc2nc([C@H]3CC[C@@H](N(C)C)CC3)n(CCCN3CCCC3)c2c1 [Example 18]
# output > 7.00

# input And CC(C)CCN(CCC(C)C)C(=O)c1ccc2nc(N3CCN(C)CC3)n(CCCN3CCCC3)c2c1 [Example 7] ?
# output 5.00 to 6.00

###

system.tested: hMC-4R (Homo sapiens)
Construct: expressed in transfected cells; host or cells: HEK293 cells (membrane preparations)
measurement.description: functional assay, homogeneous membrane based cAMP fluorescence polarization assay
Assay type: biochemical
particulars: read-out: % activation functional assay
# Emax values compiled below
The response must be a number in % with no trailing unit.

Observe how each entry below is paired with its result.
| compound | result.unit | Emax |
| --- | --- | --- |
| CC(C)CCN(CCC(C)C)C(=O)c1ccc2nc(-c3ccc(=O)[nH]c3)n(CC(F)CN3CCCC3)c2c1 (stereo not shown) | % | -11 |
| CC(C)CCN(CCC(C)C)C(=O)c1ccc2nc(CN3CCN(C)CC3)n(CCCN3CCCC3)c2c1 | % | -6 |
| CCCCN(CCCC)C(=O)c1ccc2nc(CC3CCNCC3)n(CCCN3CCCC3)c2c1 | % | -5 |

# input Field request: Emax | item: CC(C)CCN(CCC(C)C)C(=O)c1ccc2nc(-c3ncco3)n(CC(O)CN3CCCC3)c2c1 (stereo not shown)
# output -28

###

Each entry below lists one item and its recorded pIC50 value.
system.tested: hMC-4R (Homo sapiens, UniProt P32245)
Construct: expressed in transfected cells; host or cells: HEK293 cells (membrane preparations)
measurement.description: membrane binding assay, competition with fluorescence labeled NDP-alpha-MSH (fluorescence polarization)
pIC50: −log10 of the molar value.

// worked examples, pIC50 included
| molecule | system.tested | pIC50 |
| --- | --- | --- |
| CC(C)CCN(CCC(C)C)C(=O)c1ccc2nc(CC3CCN(C)CC3)n(CCCN3CCCC3)c2c1 | hMC-4R (Homo sapiens, UniProt P32245) | > 7.00 |
| CC(C)CCN(CCC(C)C)C(=O)c1ccc2nc(CC3CCN(C(=O)OC(C)(C)C)CC3)n(CCCN3CCCC3)c2c1 | hMC-4R (Homo sapiens, UniProt P32245) | > 7.00 |

# input For the molecule shown here, CC(C)CCN(CCC(C)C)C(=O)c1ccc2nc(C3CCNCC3)n(CCCN3CCCC3C)c2c1 (stereo not drawn) , give the reported pIC50.
# output > 7.00

###

system.tested: hMC-4R (Homo sapiens)
Construct: expressed in transfected cells; host or cells: HEK293 cells (membrane preparations)
measurement.description: functional assay, homogeneous membrane based cAMP fluorescence polarization assay
Type: biochemical
particulars: read-out: % activation functional assay
Property: Emax; scope: individual compounds
Supply the numeric figure in %, leaving out any unit text.

Would you please look over these solved cases?
| compound | system.tested | measured.quantity | quantitative.readout |
| --- | --- | --- | --- |
| CC(C)CCN(CCC(C)C)C(=O)c1ccc2nc(C3CCN(C)CC3)n(CCCN3CCCC3C)c2c1 (centres unmarked) | hMC-4R (Homo sapiens) | Emax | -2 |
| CCCCN(CCCC)C(=O)c1ccc2nc(CC3CCN(C)CC3)n(CCCN3CCCC3)c2c1 | hMC-4R (Homo sapiens) | Emax | -8 |
| CC(C)CCN(CCC(C)C)C(=O)c1ccc2nc(C3CCC(=O)NC3)n(CCCN3CCCC3)c2c1 (centres unmarked) | hMC-4R (Homo sapiens) | Emax | -11 |

Continue with the next compound.
# input If you can, please state the reported Emax value of CC(C)CCN(CCC(C)C)C(=O)c1ccc2nc(-c3ccc(=O)[nH]c3)n(CCCN3CCCC3C)c2c1 (centres unmarked) .
# output -37
